These data points were gathered from PubChem BioAssay (NCI).

System: UO-31 renal
experiment-summary: NCI-60 one-dose screen, 48 h
condition-details: 10 µM unless noted
Experimental: Growth inhibition of the UO-31 human tumor cell line is measured as a screen for anti-cancer activity. Cells are grown in 96 well plates and exposed to the test compound for 48 hours. Compounds are tested at a single concentration, which is 10^-5 M for most compounds. The reported endpoint is percent growth (GI% or GIPRCNT), where numbers from 0 - 100% represent growth inhibition, and numbers from -100% - 0 represent cell death. For example, a value of 40 represents 60% growth inhibition. […]
This is part of a sample that, as a whole, favours compounds with a hit. Of some 83,000 tested, about 20% had one in any assay. Calls of active or inactive are those of the source. How the source made its calls: active means growth percent below 10; inactive means the rest.
Labels: yes (1) (active), no (0) (inactive)

1) CCCCn1c(=O)[nH]c(N)c(C(c2ccc(F)cc2)c2c(N)[nH]c(=O)n(CCCC)c2=O)c1=O: no (0)
2) CCOC(=O)c1ccc(NC(=O)CCCN(CC)CC)cc1: no (0)
3) Cn1cc(Nc2nccc(-c3ccc(N4CCCC4)c(C#N)c3)n2)cn1: no (0)
4) CO[C@H]1/C=C/O[C@@]2(C)Oc3c(C)c(O)c4c(c3C2=O)C(=O)C(/C=N/N(c2ccccc2)c2ccccc2)=C(NC(=O)/C(C)=C\C=C\[C@H](C)[C@H](O)[C@@H](C)[C@@H](O)[C@@H](C)[C@H](OC(C)=O)[C@@H]1C)C4=O: yes (1)
5) N=C(N)c1ccc(-c2ccc(-c3ccc(Cl)cn3)s2)cc1: no (0)
6) CCCCCOC(=O)c1cccc(NC(=O)CN(CC)CC)c1: no (0)
7) CCOC(=O)c1ccc(-c2ccc3cc(OC)ccc3c2)nc1C: no (0)
8) COc1ccc(Oc2nc(Nc3ccc(N4CCCCC4)nc3)ncc2NC(=O)c2cc(OC)cc(OC)c2)cc1: no (0)
9) C#CC[C@H](N)C(=O)O: no (0)

---

Tested on: SK-MEL-28 melanoma
experiment-summary: NCI-60 one-dose screen, 48 h (100 = growth as untreated, 0 = no growth, -100 = all killed)
condition-details: 10 µM unless noted
The panel holds about 83,000 compounds, 20% with a hit somewhere; the sample as a whole holds those more often.
Reported growth is given for each of the following compounds.
observable: growth (%)

1) COc1cc(C2CC(=O)Nc3n[nH]c(-c4ccccc4)c32)cc(OC)c1OC (centres undefined): 66.5
2) N#C/C(=C\c1ccc2c(c1)OCO2)n1nnc2ccccc21: 25.8
3) COc1ccc(C2=NC(=O)NC2c2ccc(OC)cc2)cc1 (centres undefined): 72.6
4) Clc1cnc(Nc2ccc(OCCN3CCCC3)cc2)nc1NCc1ccco1: 51.7
5) CCCCN(Cc1ccc(C(=O)NO)cc1)C(=O)Nc1ccc(OCCCCCCCCCn2cc(CCCCC(=O)N[C@H](C(=O)N3C[C@H](O)C[C@H]3C(=O)NCc3ccc(-c4scnc4C)cc3)C(C)(C)C)nn2)cc1: 62.8
6) NC(=O)c1c(NC(=O)c2ccccn2)sc2c1CCC(=O)C2: 39.9
7) CCN1CCN(c2ccc(Nc3cc(-c4cccnc4Nc4c(Cl)c(OC)cc(OC)c4Cl)ncn3)cc2)CC1: 100
8) CN(C)CCCCNc1ccc(NCCCCN(C)C)c2c1C(=O)c1c(O)ccc(O)c1C2=O: 112
9) Cn1ncc2c(Nc3ccc(Br)cc3)nc(Nc3ccc(Br)cc3)nc21: 50.1

---

System: UO-31 renal
experiment-summary: NCI-60 one-dose screen, 48 h (100 = growth as untreated, 0 = no growth, -100 = all killed)
condition-details: 10 µM unless noted
Experimental: Growth inhibition of the UO-31 human tumor cell line is measured as a screen for anti-cancer activity. Cells are grown in 96 well plates and exposed to the test compound for 48 hours. Compounds are tested at a single concentration, which is 10^-5 M for most compounds. The reported endpoint is percent growth (GI% or GIPRCNT), where numbers from 0 - 100% represent growth inhibition, and numbers from -100% - 0 represent cell death. For example, a value of 40 represents 60% growth inhibition. […]
About 83,000 compounds went through this panel and 20% of them were active in at least one assay; those are over-represented in the sample as a whole.
observable: growth (%)

1) COc1ccc(C2CC(c3cnccn3)=NN2)cc1OC (stereo unspecified): 88.7
2) COc1ccc(-c2nnc(SCC(=O)NC3=NN=C(c4ccccc4)CS3)o2)cc1: 88.1
3) CCn1c(Sc2nnc(NC(C)=O)s2)nc2c1c(=O)n(C)c(=O)n2C: 83.5
4) C=C(C)[C@@H]1CC[C@@]2(C(=O)O)CC[C@]3(C)C(CCC4[C@@]5(C)CCC(OS(=O)(=O)c6ccccc6)C(C)(C)C5CC[C@]43C)C12 (stereo partly specified): 48.5
5) CCCCCCCCn1cc(C2=C(c3coc4ccc(OC)cc34)C(=O)NC2=O)c2ccccc21: 85.7
6) O=C(Oc1ccc[nH]c1=O)c1cc([N+](=O)[O-])cc([N+](=O)[O-])c1: 96.7
7) CC(C)(C)c1ccc(C(=O)Nc2sc3c(c2C(N)=O)CCC(=O)C3)cc1: -99.6
8) CN(C)c1cnccn1: 84.2
9) COc1cc(C(=O)Nc2cc(O)c(CC=C(C)C)c(O)c2)cc2c1O[C@]1(C)CC[C@@H](O)C(C)(C)[C@H]1C2: -1.4
10) O=C1CSC(c2ccccc2)N1c1ccccc1 (stereo unspecified): 85.7
11) O=C1CSC(c2ccccc2Cl)N1c1nnc(Cn2cnnc2)o1 (stereo unspecified): 66.4
12) COc1cc2c(O)n(CCCn3ccnc3)c3c4cnc5cccc(c(=O)c3c2cc1OC)c54: 64.7
13) COc1ccc(-c2c(N)n[nH]c2-c2ccccc2O)cc1OC: 62.6
14) O=C1c2ccccc2C2(c3ccc(O)cc3)c3ccccc3Oc3cccc1c32 (stereo unspecified): 45.7
15) CCOc1cc(N)ccc1C(=O)NCCCN(CC)CC: 75.8
16) NS(=O)(=O)c1cnccc1-n1ccc(=O)c(S(N)(=O)=O)c1: 68.6
17) COc1ccc(/C=C2\COc3ccc(O)c(O)c3C2=O)c(OC)c1: 34.5
18) O=C(Oc1ccc([N+](=O)[O-])cc1)c1ccc(CBr)cc1: 83.3
19) OC(CBr)c1ccnc2ccccc12 (stereo unspecified): 83.4
20) Cl.Fc1c[c-]c(-c2ccccn2)c(F)c1.[Pt].c1ccc([PH+](c2ccccc2)c2ccccc2[PH+](c2ccccc2)c2ccccc2)cc1: -98.8
21) NC(N)=N/N=C(/c1ccccc1)c1ccc(N)cc1: 95
22) CCOC(=O)N1CCc2c(sc3c2C(=O)N[C@H](c2ccc(OC)cc2)N3)C1: 87.6
23) Nc1nc(I)c2ncn(C3OC(CO)C(O)C3O)c2n1 (stereo unspecified): 96
24) CN1CCC(=C2c3ccccc3C=Cc3ccccc32)CC1: 67
25) Cc1cn(C2CCCCC2)c(=O)[nH]c1=O: 99.8
26) C=C1c2c(C)nn(-c3ccc(O)cc3)c2N(C)C23C[C@@H]1C1(C)c4c(C)nn(-c5ccc(O)cc5)c4N(C)C(C)(C[C@H]12)C3 (stereo partly specified): 22.4
27) CN(CCC(=O)/C(=C\c1ccccc1)c1ccc(Cl)cc1)Cc1ccccc1: -40.9
28) CCCCCCCSc1ccc(C(=O)O)cc1: 84
29) O=C1C2=C(CCN(Cc3ccccc3)C2)N2CCN=C2N1Cc1ccc(C(F)(F)F)cc1: 25.4
30) COc1cc(/C=C/C(=O)c2cccc(-n3cc(-c4ccc(Cl)cc4)[nH]c3=O)c2)cc(OC)c1OC: 52.2
31) CS(=O)(=O)c1ccc(-c2nc3cc(Cl)ccc3n2CC(=O)N/N=C/c2ccc(Cl)cc2)cc1: 77.8
32) Cc1cc(Cl)nc(N(CCCNc2ccnc3cc(Cl)ccc23)Cc2ccccn2)n1: 27.2
33) CCCCNCC(=O)Nc1ccc(C(=O)OCC)cc1: 91.8
34) O=C1C=CC(=Nc2cc(Br)c(O)c(Br)c2)C=C1: 56.3
35) C=C1c2c(C)nn(-c3ccc(NC(C)=O)cc3)c2N(C)C23CC1C1(C)c4c(C)nn(-c5ccc(NC(C)=O)cc5)c4N(C)C(C)(CC12)C3 (stereo unspecified): 24.2
36) CN(C)c1ccc(-c2cc(-c3ccc(Nc4nc(Nc5ccccc5)nc(Nc5ccc(Cl)cc5)n4)cc3)nc(N)n2)cc1: 39
37) COC(=O)c1ccc2oc(NC(=O)c3ccc(N4CCOCC4)c([N+](=O)[O-])c3)nc2c1: 75.4
38) NS(=O)(=O)c1cn(-c2ncnc3nc[nH]c23)ccc1=O: 78.2
39) CC(=O)C(C(C)=O)c1nc2sc3cc(Cl)ccc3n2c(=N)c1C#N: 58.4
40) O=C1N(c2ccccc2)C(=S)N[C@]12[C@H](c1ccccc1)C1CCCN1[C@]21C(=O)NC2C=CC(Cl)=C[C@H]21 (stereo partly specified): 71.3
41) CS(=O)(=O)c1ccc(-c2[nH]c3ccc(F)cc3c2/C=N/NC(N)=S)cc1: 40.2
